- target or system: UniProt:Q99873
- experiment description: Inhibition of human recombinant PRMT1-mediated arginine methylation at 50 uM using nonhistone protein Npl3 substrate by ELISA
measured parameter: inhibition (%)

Nc1ccc(C(=O)Nc2ccc(S(=O)(=O)NCCc3ccccc3)cc2)cc1 :: 40
Nc1ccc(S(=O)(=O)NCCc2ccc(O)cc2)cc1 :: 37
Nc1ccc(S(=O)(=O)c2ccc(NC(=O)Cc3ccccc3)cc2)cc1 :: 41.2
Nc1ccc(S(=O)(=O)NCc2ccccc2)cc1 :: 28

----------
- target or system: Protein arginine N-methyltransferase 1 (Homo sapiens)
- Sequence (Q99873 whole entry, looked up): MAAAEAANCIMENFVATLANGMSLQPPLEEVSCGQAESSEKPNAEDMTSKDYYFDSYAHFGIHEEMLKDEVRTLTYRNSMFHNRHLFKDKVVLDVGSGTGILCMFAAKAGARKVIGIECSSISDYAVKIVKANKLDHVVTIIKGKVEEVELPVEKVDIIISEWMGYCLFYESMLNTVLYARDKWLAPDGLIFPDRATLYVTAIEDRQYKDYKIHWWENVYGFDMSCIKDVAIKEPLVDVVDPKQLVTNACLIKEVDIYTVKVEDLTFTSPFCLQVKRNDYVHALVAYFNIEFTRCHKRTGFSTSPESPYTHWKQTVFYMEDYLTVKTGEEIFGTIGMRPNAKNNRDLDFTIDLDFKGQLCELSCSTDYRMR
- experiment description: Inhibition of human recombinant PRMT1-mediated arginine methylation at 50 uM using nonhistone protein Npl3 substrate by ELISA
# Lookup of reported inhibition keyed by entry

Nc1ccc(S(=O)(=O)NCCc2ccc(Cl)cc2)cc1 :: < 5%
CCC(=O)Nc1ccc(S(=O)(=O)c2ccc(NC(=O)CC)cc2)cc1 :: < 5%

Query block: Report inhibition for "O=S(=O)(NCCc1ccccc1)c1ccc(Cl)cc1" please.
Result block: < 5%
